Biological target: ER-alpha (WT) (Homo sapiens, UniProt P03372)
Construct: endogenous in cells; host or cells: MCF7 breast cancer cells
Sequence (P03372 whole entry): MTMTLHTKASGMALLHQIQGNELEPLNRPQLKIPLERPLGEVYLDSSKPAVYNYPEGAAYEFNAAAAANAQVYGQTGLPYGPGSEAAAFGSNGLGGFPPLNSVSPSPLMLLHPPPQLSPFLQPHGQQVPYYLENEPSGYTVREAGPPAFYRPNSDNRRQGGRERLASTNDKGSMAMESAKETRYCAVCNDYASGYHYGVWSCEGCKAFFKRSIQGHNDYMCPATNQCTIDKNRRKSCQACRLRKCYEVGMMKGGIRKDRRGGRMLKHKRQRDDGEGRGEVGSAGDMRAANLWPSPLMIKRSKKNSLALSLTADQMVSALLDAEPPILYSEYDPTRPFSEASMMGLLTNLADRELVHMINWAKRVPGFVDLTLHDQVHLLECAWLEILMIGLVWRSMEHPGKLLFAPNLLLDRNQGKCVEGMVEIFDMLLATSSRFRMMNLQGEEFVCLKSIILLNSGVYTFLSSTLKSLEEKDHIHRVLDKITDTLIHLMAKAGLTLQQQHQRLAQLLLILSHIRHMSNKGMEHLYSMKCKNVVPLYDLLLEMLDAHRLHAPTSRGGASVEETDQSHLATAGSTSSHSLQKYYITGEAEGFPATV
Experiment: Breast Cancer Cell ERa High Content Fluorescence Imaging Degradation Assay (MCF7 HCS)
Assay type: cell-based
Details: MCF7 breast cancer cells, 4 hours incubation; plateau of the maximal effect; DMSO and Fulvestrant define 0% and 100% changes in ESR1
Readout: ERalpha (WT) MCF7 HCS (S inf) (%)

{"Compound": "C[C@H]1Cc2cc(O)ccc2[C@@H](c2ccc(OCCN3CC(CF)C3)cc2)N1S(C)(=O)=O", "Readout": "ERalpha (WT) MCF7 HCS (S inf)", "Result": "−53"}
{"Compound": "C[C@@H]1Cc2cc(C(=O)O)ccc2[C@@H](c2ccc(OCCN3CC(CF)C3)cc2)N1CC(F)(F)F (single isomer, unassigned)", "Readout": "ERalpha (WT) MCF7 HCS (S inf)", "Result": "−100"}
{"Compound": "CC1(C)Cc2cc(O)ccc2C(c2ccc(OCCN3CC(CF)C3)cc2)N1CC(F)(F)F (single isomer, unassigned)", "Readout": "ERalpha (WT) MCF7 HCS (S inf)", "Result": "−96"}
{"Compound": "OCc1ccc2c(c1)CCN(CC(F)(F)F)[C@@H]2c1ccc(OCCN2CC(CF)C2)cc1", "Readout": "ERalpha (WT) MCF7 HCS (S inf)", "Result": "−100"}
{"Compound": "C[C@H]1Cc2c(ccc3[nH]ncc23)[C@H](c2c(F)cc(OCCN3CC(CF)C3)cc2F)N1CC(C)(C)F (single isomer, unassigned)", "Readout": "ERalpha (WT) MCF7 HCS (S inf)", "Result": "−90"}
{"Compound": "CC(C)(F)CN1CCc2cc(O)ccc2[C@@]1(C)c1ccc(OCCN2CC(CF)C2)cc1 (single isomer, unassigned)", "Readout": "ERalpha (WT) MCF7 HCS (S inf)", "Result": "−98"}
{"Compound": "C[C@@H]1Cc2cc(CO)ccc2[C@@H](c2ccc(OCCN3CC(CF)C3)cc2)N1CC(F)(F)CO", "Readout": "ERalpha (WT) MCF7 HCS (S inf)", "Result": "−99"}

---

Reported ERalpha (WT) MCF7 HCS (S inf) values for a set of compounds
Molecular target: ER-alpha (WT) (Homo sapiens)
Construct: endogenous in cells; host or cells: MCF7 breast cancer cells
Assay: Breast Cancer Cell ERa High Content Fluorescence Imaging Degradation Assay (MCF7 HCS)
Assay type: cell-based
Conditions: MCF7 breast cancer cells, 4 hours incubation; plateau of the maximal effect; DMSO and Fulvestrant define 0% and 100% changes in ESR1
Method: MCF7 breast cancer cells were seeded on day 1 at a density of 10,000 cells per well in 384 well poly-lysine coated tissue culture plate (Greiner #T-3101-4), in 50 μL/well RPMI (phenol red free), 10% FBS (Charcoal stripped), containing L-glutamine. […] Quantitative fluorescence imaging of ESR1 was carried out using a Cellomics Arrayscan V® (Thermo). […]

{"Compound": "C[C@@]1(c2ccc(OCCN3CC(CF)C3)cc2)c2ccc(O)cc2CCN1CC(F)(F)CO", "Study target": "ER-alpha (WT) (Homo sapiens)", "ERalpha (WT) MCF7 HCS (S inf) / %": "−101"}
{"Compound": "Oc1ccc2c(c1)CCN(CC(F)(F)F)C2c1c(F)cc(OC2CN(CCCF)C2)cc1F (single isomer, unassigned) [Example 144]", "Study target": "ER-alpha (WT) (Homo sapiens)", "ERalpha (WT) MCF7 HCS (S inf) / %": "−102"}
{"Compound": "Oc1ccc2c(c1)CCN(CC(F)(F)F)[C@@H]2c1ccc(OCCN2CC(CF)C2)cc1 (single isomer, unassigned)", "Study target": "ER-alpha (WT) (Homo sapiens)", "ERalpha (WT) MCF7 HCS (S inf) / %": "−99"}
{"Compound": "CC(C)(F)CN1CCc2cc(O)ccc2[C@@]1(c1ccc(OCCN2CC(CF)C2)cc1)C(F)F (single isomer, unassigned)", "Study target": "ER-alpha (WT) (Homo sapiens)", "ERalpha (WT) MCF7 HCS (S inf) / %": "−85"}
{"Compound": "FCC1CN(CCOc2ccc([C@H]3c4ccc(-c5cn[nH]c5)cc4CCN3CC(F)(F)F)cc2)C1", "Study target": "ER-alpha (WT) (Homo sapiens)", "ERalpha (WT) MCF7 HCS (S inf) / %": "−100"}
{"Compound": "Oc1ccc2c(c1)CCN(CC(F)(F)F)C2c1c(F)cc(OC2CN(CCCF)C2)cc1F (single isomer, unassigned) [Example 143]", "Study target": "ER-alpha (WT) (Homo sapiens)", "ERalpha (WT) MCF7 HCS (S inf) / %": "−100"}
{"Compound": "C[C@]1(c2ccc(OCCN3CC(CF)C3)cc2)c2ccc(O)cc2CCN1CC(F)(F)CO", "Study target": "ER-alpha (WT) (Homo sapiens)", "ERalpha (WT) MCF7 HCS (S inf) / %": "−101"}
{"Compound": "CC(=O)c1ccc2c(c1)C[C@@H](C)N(CC(F)(F)CO)[C@@H]2c1ccc(OCCN2CC(CF)C2)cc1 (single isomer, unassigned)", "Study target": "ER-alpha (WT) (Homo sapiens)", "ERalpha (WT) MCF7 HCS (S inf) / %": "−97"}
{"Compound": "CC(C)(F)CN1CCc2cc(O)ccc2[C@@H]1c1ccc(OCCN2CC(CF)C2)cc1", "Study target": "ER-alpha (WT) (Homo sapiens)", "ERalpha (WT) MCF7 HCS (S inf) / %": "−98"}
{"Compound": "C[C@@H]1Cc2cc(O)ccc2[C@@H](c2ccc(OCCN3CC(CF)C3)cc2)N1S(C)(=O)=O", "Study target": "ER-alpha (WT) (Homo sapiens)", "ERalpha (WT) MCF7 HCS (S inf) / %": "−93"}
{"Compound": "OCc1ccc2c(c1)CCN(CC(F)(F)F)C2c1ccc(OCCN2CC(CF)C2)cc1 (single isomer, unassigned)", "Study target": "ER-alpha (WT) (Homo sapiens)", "ERalpha (WT) MCF7 HCS (S inf) / %": "−100"}
{"Compound": "C[C@@H]1Cc2cc(O)ccc2[C@@H](c2ccc(OCCN3CC(CF)C3)cc2)N1CC(F)(F)CO", "Study target": "ER-alpha (WT) (Homo sapiens)", "ERalpha (WT) MCF7 HCS (S inf) / %": "−105"}
{"Compound": "Oc1ccc2c(c1)CCN(CC(F)(F)F)[C@@H]2c1c(F)cc(OCCN2CC(CF)C2)cc1F", "Study target": "ER-alpha (WT) (Homo sapiens)", "ERalpha (WT) MCF7 HCS (S inf) / %": "−98"}
{"Compound": "C[C@H]1Cc2cc(O)ccc2[C@H](c2ccc(OCCN3CC(CF)C3)cc2)N1CC(F)(F)F (single isomer, unassigned)", "Study target": "ER-alpha (WT) (Homo sapiens)", "ERalpha (WT) MCF7 HCS (S inf) / %": "−96"}
{"Compound": "Oc1ccc2c(c1)CCCN(CC(F)(F)F)[C@@H]2c1ccc(OCCN2CC(CF)C2)cc1 (single isomer, unassigned)", "Study target": "ER-alpha (WT) (Homo sapiens)", "ERalpha (WT) MCF7 HCS (S inf) / %": "−96.6"}
{"Compound": "CC1Cc2c(ccc3c2cnn3CC(C)(C)F)C(c2c(F)cc(OCCN3CC(CF)C3)cc2F)N1CC(C)(C)F (stereo not drawn)", "Study target": "ER-alpha (WT) (Homo sapiens)", "ERalpha (WT) MCF7 HCS (S inf) / %": "−62"}
{"Compound": "FCC1CN(CCOc2ccc([C@@H]3c4ccc(-c5cc[nH]n5)cc4CCN3CC(F)(F)F)cc2)C1", "Study target": "ER-alpha (WT) (Homo sapiens)", "ERalpha (WT) MCF7 HCS (S inf) / %": "−91"}
{"Compound": "C[C@@H]1Cc2cc(CO)ccc2[C@@H](c2ccc(OCCN3CC(CF)C3)cc2)N1CC(F)(F)F (single isomer, unassigned)", "Study target": "ER-alpha (WT) (Homo sapiens)", "ERalpha (WT) MCF7 HCS (S inf) / %": "−99"}
{"Compound": "C[C@@H]1Cc2cccc(O)c2[C@@H](c2ccc(OCCN3CC(CF)C3)cc2)N1CC(F)(F)CO (single isomer, unassigned)", "Study target": "ER-alpha (WT) (Homo sapiens)", "ERalpha (WT) MCF7 HCS (S inf) / %": "−82"}
{"Compound": "C[C@H](CN1CCc2cc(O)ccc2[C@@]1(C)c1ccc(OCCN2CC(CF)C2)cc1)C(=O)O", "Study target": "ER-alpha (WT) (Homo sapiens)", "ERalpha (WT) MCF7 HCS (S inf) / %": "−45"}
{"Compound": "CC(C)(F)CN1CCc2cc(O)ccc2[C@]1(C)c1ccc(OCCN2CC(CF)C2)cc1 (single isomer, unassigned)", "Study target": "ER-alpha (WT) (Homo sapiens)", "ERalpha (WT) MCF7 HCS (S inf) / %": "−97"}
{"Compound": "C[C@@H]1Cc2cc(C(C)(C)O)ccc2[C@@H](c2ccc(OCCN3CC(CF)C3)cc2)N1CC(F)(F)F", "Study target": "ER-alpha (WT) (Homo sapiens)", "ERalpha (WT) MCF7 HCS (S inf) / %": "−82"}
{"Compound": "C[C@H]1Cc2cc(CO)ccc2[C@H](c2ccc(OCCN3CC(CF)C3)cc2)N1CC(F)(F)F (single isomer, unassigned)", "Study target": "ER-alpha (WT) (Homo sapiens)", "ERalpha (WT) MCF7 HCS (S inf) / %": "−88"}
{"Compound": "C[C@@H]1Cc2cc(S(N)(=O)=O)ccc2[C@@H](c2ccc(OCCN3CC(CF)C3)cc2)N1CC(F)(F)CO (single isomer, unassigned)", "Study target": "ER-alpha (WT) (Homo sapiens)", "ERalpha (WT) MCF7 HCS (S inf) / %": "−98"}
{"Compound": "CC1(C)Cc2cc(O)ccc2[C@H](c2ccc(OCCN3CC(CF)C3)cc2)N1CC(F)(F)F", "Study target": "ER-alpha (WT) (Homo sapiens)", "ERalpha (WT) MCF7 HCS (S inf) / %": "−98"}
{"Compound": "C[C@@H]1CCN(CCOc2ccc([C@]3(C)c4ccc(O)cc4CCN3CC(C)(C)F)cc2)C1", "Study target": "ER-alpha (WT) (Homo sapiens)", "ERalpha (WT) MCF7 HCS (S inf) / %": "−68"}
{"Compound": "CC(C)(F)CN1CCc2cc(O)ccc2[C@H]1c1ccc(OCCN2CC(CF)C2)cc1", "Study target": "ER-alpha (WT) (Homo sapiens)", "ERalpha (WT) MCF7 HCS (S inf) / %": "−101"}
